- system_under_test: REV-ERBα LBD (human; residues 281-614 Δ324-422) (Homo sapiens, UniProt P20393, DEL324-422)
- Construct: 6×Histag-REV-ERBα LBD (human; residues 281-614 Δ324-422); made in house; host or cells: Escherichia coli
- Sequence (P20393 with tags, fused parts or gaps DEL324-422): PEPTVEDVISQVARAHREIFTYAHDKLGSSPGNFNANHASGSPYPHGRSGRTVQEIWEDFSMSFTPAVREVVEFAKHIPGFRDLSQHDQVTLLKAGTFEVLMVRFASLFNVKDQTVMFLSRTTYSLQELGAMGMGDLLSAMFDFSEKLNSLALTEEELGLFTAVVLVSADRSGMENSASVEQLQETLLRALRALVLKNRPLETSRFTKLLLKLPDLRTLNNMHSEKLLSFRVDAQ
- Sequence (Q9Y618 2335-2356 partner limits assumed): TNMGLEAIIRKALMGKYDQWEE
- measurement_notes: TR-FRET corepressor interaction assay (REV-ERBα LBD, FITC-SMRT peptide)
- Type: biochemical
- condition_notes: FITC-SMRT peptide, read-out: REVERBα agonism (EC50 class, FRET assay)
pEC50: −log10 of the molar value.
Reported pEC50 values for a set of molecules

Param readout = pEC50; param system = REV-ERBα LBD (human; residues 281-614 Δ324-422) (Homo sapiens, UniProt P20393, DEL324-422); param query = CCC(C)n1cc([C@H](NS(=O)(=O)C2CCC2)C(F)(F)F)c2ccc(-c3ccccc3C(F)(F)F)cc21 (some centres unmarked) ; response: value
> 6.30

What do you get for CC(C)(C)Cn1cc(CCNS(=O)(=O)C2CC2)c2ccc(-c3cccc(C(F)(F)F)c3Cl)cc21 ?
5.52 to 6.30

What do you get for CC(C)(C)Cn1cc([C@H](NS(=O)(=O)C2CCOC2)C(F)(F)F)c2cc(F)c(-c3ccccc3C(F)(F)F)cc21 (some centres unmarked) ?
< 5.52

What do you get for CC(C)(C)Cn1cc([C@H](NS(=O)(=O)C2CCC2)C(F)(F)F)c2cc(F)c(-c3cccnc3C#N)cc21 (racemic) ?
> 6.30

What do you get for CC(C)(C)Cn1cc([C@H](NS(=O)(=O)C2CC2)C(F)(F)F)c2cc(C(F)(F)F)c(-c3ccncc3)cc21 ?
5.52 to 6.30

What do you get for CC(C)(C)Cn1cc([C@H](NS(=O)(=O)C2CC2)C(F)(F)F)c2ccc(-c3ccccn3)cc21 ?
5.52 to 6.30

What do you get for Cc1cccc(C(F)(F)F)c1-c1ccc2c([C@H](NS(=O)(=O)C3CC3)C(F)(F)F)cn(CC(C)(C)C)c2c1 ?
> 6.30

What do you get for CC(C)(C)Cn1cc([C@H](NS(=O)(=O)C2CC2)C(F)(F)F)c2ccc(-c3ccccc3C(F)(F)F)c(F)c21 ?
> 6.30

What do you get for CC(C)(C)Cn1cc([C@H](CF)NS(=O)(=O)C2CCC2)c2ccc(-c3ccccc3C(F)(F)F)cc21 ?
> 6.30

What do you get for CC(C)(C)Cn1cc([C@H](NS(=O)(=O)C2CC2(F)F)C(F)(F)F)c2ccc(-c3ccccc3C(F)(F)F)cc21 (some centres unmarked) ?
5.52 to 6.30

What do you get for CC(C)(C)Cn1cc(CCNS(=O)(=O)C2CC2)c2ccc(-c3cc(C(F)(F)F)ccc3Cl)cc21 ?
> 6.30

What do you get for CC(C)(O)Cn1cc([C@H](NS(=O)(=O)C2CCC2)C(F)(F)F)c2cc(F)c(-c3ccccc3C(F)(F)F)cc21 ?
5.52 to 6.30

What do you get for CC(C)(C)Cn1cc([C@H](NS(=O)(=O)C2CC2)C(F)(F)F)c2ccc(-c3ncccc3Cl)cc21 ?
5.52 to 6.30

What do you get for CC(C)(C)Cn1cc([C@H](NS(=O)(=O)C2CCC2)C(F)(F)F)c2cc(F)c(-c3ccccc3C(F)(F)F)nc21 ?
> 6.30
